- System: 817829-284-R-J1-PDC complex spheroid viability;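 note: spheroids exposed to compounds for 7 days; 100% = DMSO vehicle-treated spheroids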
- Assay Text: Anticancer human tumor 817829-284-R-J1-PDC patient-derived colon adenocarcinoma cell line growth inhibition [POLQ]
- Run Conditions: second compound 0.316 µM; first compound 3.16 µM; active compounds read low
Answer each item with its documented viability, T/C.
Answers are plain numbers, in %.

// worked examples, viability, T/C included
{"Compound": "C#Cc1c(F)ccc2cc(O)cc(-c3ncc4c(N5CC6CCC(C5)N6)nc(OCC56CCCN5CC(F)C6)nc4c3F)c12 (stereo not drawn) + COC1C(OC(N)=O)C(O)C(Oc2ccc3c(O)c(NC(=O)c4ccc(O)c(CC=C(C)C)c4)c(=O)oc3c2C)OC1(C)C", "Observed Property": "viability, T/C", "Quantitative Readout": 127}
{"Compound": "O=c1[nH]cc(F)c(=O)[nH]1 + Cc1cccc(N(C)C(=O)C2C(O)CCN2c2nc(C)cc(C(F)(F)F)c2C#N)c1", "Observed Property": "viability, T/C", "Quantitative Readout": 55.4}
{"Compound": "CNCc1ccc(-c2[nH]c3cc(F)cc4c3c2CCNC4=O)cc1 + Cc1cccc(N(C)C(=O)C2C(O)CCN2c2nc(C)cc(C(F)(F)F)c2C#N)c1", "Observed Property": "viability, T/C", "Quantitative Readout": 53.7}
{"Compound": "COc1cc2cc(C(=O)CCC(=O)O)sc2cc1OC + Nc1ccc(C#CCN(C(=O)Cc2ncc(C(F)(F)F)cc2C(F)(F)F)c2ccc(F)cc2)nn1", "Observed Property": "viability, T/C", "Quantitative Readout": 108}
{"Compound": "CC1COCCN1c1cc(-c2ccnn2C)c2ccnc(-c3ccn[nH]3)c2n1 (stereo not drawn) + COC1C(OC(N)=O)C(O)C(Oc2ccc3c(O)c(NC(=O)c4ccc(O)c(CC=C(C)C)c4)c(=O)oc3c2C)OC1(C)C", "Observed Property": "viability, T/C", "Quantitative Readout": 3.4}
{"Compound": "CCCS(=O)(=O)Nc1ccc(F)c(C(=O)c2c[nH]c3ncc(-c4ccc(Cl)cc4)cc23)c1F + Nc1ccc(C#CCN(C(=O)Cc2ncc(C(F)(F)F)cc2C(F)(F)F)c2ccc(F)cc2)nn1", "Observed Property": "viability, T/C", "Quantitative Readout": 53.2}
{"Compound": "O=C(c1cc(Cc2n[nH]c(=O)c3ccccc23)ccc1F)N1CCN(C(=O)C2CC2)CC1 + Nc1ccc(C#CCN(C(=O)Cc2ncc(C(F)(F)F)cc2C(F)(F)F)c2ccc(F)cc2)nn1", "Observed Property": "viability, T/C", "Quantitative Readout": 55}
{"Compound": "O=C(Nc1ccc(O)c(NS(=O)(=O)c2ccc(F)cc2)c1)c1ccc(-c2ccccc2)cc1 + Cc1cccc(N(C)C(=O)C2C(O)CCN2c2nc(C)cc(C(F)(F)F)c2C#N)c1", "Observed Property": "viability, T/C", "Quantitative Readout": 87.6}

Dear reader, for each entry below, please note its viability, T/C.
1. CCCS(=O)(=O)Nc1ccc(F)c(C(=O)c2c[nH]c3ncc(-c4ccc(Cl)cc4)cc23)c1F + COC1C(OC(N)=O)C(O)C(Oc2ccc3c(O)c(NC(=O)c4ccc(O)c(CC=C(C)C)c4)c(=O)oc3c2C)OC1(C)C
2. CC1COCCN1c1cc(C2(O)CC3CCC(C2)O3)c2cnn(-c3ccn[nH]3)c2n1 (stereo not drawn) + COC1C(OC(N)=O)C(O)C(Oc2ccc3c(O)c(NC(=O)c4ccc(O)c(CC=C(C)C)c4)c(=O)oc3c2C)OC1(C)C

### Response
1. 68.5
2. 2.69

// provenance: PubChem BioAssay AID1963839
